These measurements were taken from ChEMBL document CHEMBL4049410.

Test system: Escherichia coli
Experiment: Antibacterial activity against Escherichia coli JM109 after 24 hrs by two-fold serial dilution assay
Format: functional
Conditions: Escherichia coli, JM109, 24 h; read-out: MIC
MIC less than 30 µM is Satisfied; MIC greater than or equal to 30 µM is Not satisfied.

>  <COMPOUND>
COc1cc(-c2nc3ccccc3n2CCCCCCn2c3ccccc3c3ccccc32)c2c(c1O)CN1CCc3cc4c(cc3C1C2)OCO4 (stereo unspecified)

>  <CLASS_NAME>
Not satisfied

$$$$
>  <COMPOUND>
COc1cc(-c2nc3cc(F)ccc3[nH]2)c2c(c1O)CN1CCc3cc4c(cc3C1C2)OCO4 (stereo unspecified)

>  <CLASS_NAME>
Satisfied

$$$$
>  <COMPOUND>
COc1ccc2c(c1O)CN1CCc3cc4c(cc3C1C2)OCO4 (stereo unspecified)

>  <CLASS_NAME>
Not satisfied

$$$$
>  <COMPOUND>
COc1cc(-c2nc3cc(Cl)ccc3[nH]2)c2c(c1O)CN1CCc3cc4c(cc3C1C2)OCO4 (stereo unspecified)

>  <CLASS_NAME>
Not satisfied

$$$$
>  <COMPOUND>
COc1cc(-c2nc3ccccc3n2Cc2ccccc2Cl)c2c(c1O)CN1CCc3cc4c(cc3C1C2)OCO4 (stereo unspecified)

>  <CLASS_NAME>
Satisfied

$$$$

###

Tested on: Aspergillus flavus
Experiment: Antifungal activity against Aspergillus flavus after 24 hrs by two-fold serial dilution assay
Type: functional
Conditions: Aspergillus flavus, 24 h; read-out: MIC
# key: entry, value: MIC

>  <MOLECULE>
COc1ccc2cc3[n+](cc2c1OC)CCc1cc2c(cc1-3)OCO2

>  <OUTPUT_UNIT>
µM

>  <MIC>
1150

$$$$
>  <MOLECULE>
CCn1c(-c2cc(OC)c(O)c3c2CC2c4cc5c(cc4CCN2C3)OCO5)nc2ccccc21 (stereo unspecified)

>  <OUTPUT_UNIT>
µM

>  <MIC>
56.8

$$$$
>  <MOLECULE>
COc1cc(-c2nc3cc(F)ccc3[nH]2)c2c(c1O)CN1CCc3cc4c(cc3C1C2)OCO4 (stereo unspecified)

>  <OUTPUT_UNIT>
µM

>  <MIC>
58

$$$$
>  <MOLECULE>
COc1cc(-c2nc3ccccc3n2Cc2cccc(Cl)c2)c2c(c1O)CN1CCc3cc4c(cc3C1C2)OCO4 (stereo unspecified)

>  <OUTPUT_UNIT>
µM

>  <MIC>
18.9

$$$$
>  <MOLECULE>
OC(Cn1cncn1)(Cn1cncn1)c1ccc(F)cc1F

>  <OUTPUT_UNIT>
µM

>  <MIC>
836

$$$$
>  <MOLECULE>
COc1cc(-c2nc3ccccc3n2Cc2ccc(Cl)cc2Cl)c2c(c1O)CN1CCc3cc4c(cc3C1C2)OCO4 (stereo unspecified)

>  <OUTPUT_UNIT>
µM

>  <MIC>
71.1

$$$$
>  <MOLECULE>
COc1cc(-c2nc3ccccc3n2Cc2ccc(Cl)c(Cl)c2)c2c(c1O)CN1CCc3cc4c(cc3C1C2)OCO4 (stereo unspecified)

>  <OUTPUT_UNIT>
µM

>  <MIC>
88.8

$$$$
>  <MOLECULE>
COc1cc(-c2nc3ccccc3[nH]2)c2c(c1O)CN1CCc3cc4c(cc3C1C2)OCO4 (stereo unspecified)

>  <OUTPUT_UNIT>
µM

>  <MIC>
72.5

$$$$
>  <MOLECULE>
COc1ccc(Cn2c(-c3cc(OC)c(O)c4c3CC3c5cc6c(cc5CCN3C4)OCO6)nc3ccccc32)cc1 (stereo unspecified)

>  <OUTPUT_UNIT>
µM

>  <MIC>
23.8

$$$$
>  <MOLECULE>
CCCCCCCCn1c(-c2cc(OC)c(O)c3c2CC2c4cc5c(cc4CCN2C3)OCO5)nc2ccccc21 (stereo unspecified)

>  <OUTPUT_UNIT>
µM

>  <MIC>
28.9

$$$$
>  <MOLECULE>
CCCn1c(-c2cc(OC)c(O)c3c2CC2c4cc5c(cc4CCN2C3)OCO5)nc2ccccc21 (stereo unspecified)

>  <OUTPUT_UNIT>
µM

>  <MIC>
66.2

$$$$
>  <MOLECULE>
COc1cc(C=O)c2c(c1O)CN1CCc3cc4c(cc3C1C2)OCO4 (stereo unspecified)

>  <OUTPUT_UNIT>
µM

>  <MIC>
151

$$$$
>  <MOLECULE>
COc1ccc2c(c1O)CN1CCc3cc4c(cc3C1C2)OCO4 (stereo unspecified)

>  <OUTPUT_UNIT>
µM

>  <MIC>
656

$$$$
>  <MOLECULE>
COc1cc(-c2nc3cc(Cl)ccc3[nH]2)c2c(c1O)CN1CCc3cc4c(cc3C1C2)OCO4 (stereo unspecified)

>  <OUTPUT_UNIT>
µM

>  <MIC>
1080

$$$$
>  <MOLECULE>
CCCCCCCCCCCCn1c(-c2cc(OC)c(O)c3c2CC2c4cc5c(cc4CCN2C3)OCO5)nc2ccccc21 (stereo unspecified)

>  <OUTPUT_UNIT>
µM

>  <MIC>
43.8

$$$$
>  <MOLECULE>
COc1cc(-c2nc3ccccc3n2Cc2ccccc2Cl)c2c(c1O)CN1CCc3cc4c(cc3C1C2)OCO4 (stereo unspecified)

>  <OUTPUT_UNIT>
µM

>  <MIC>
11.8

$$$$

###

System: Escherichia coli
Test: Antibacterial activity against Escherichia coli DH52 after 24 hrs by two-fold serial dilution assay
Format: functional

>  <MOLECULE>
COc1cc(-c2nc3ccccc3n2Cc2cccc(F)c2)c2c(c1O)CN1CCc3cc4c(cc3C1C2)OCO4 (centres undefined)

>  <OUTPUT_UNIT>
µM

>  <MIC>
38.8

$$$$
>  <MOLECULE>
COc1cc(-c2nc3ccccc3n2Cc2cccc(F)c2)c2c(c1O)CN1CCc3cc4c(cc3C1C2)OCO4.Cl (centres undefined)

>  <OUTPUT_UNIT>
µM

>  <MIC>
141.6

$$$$
>  <MOLECULE>
COc1cc(-c2nc3ccccc3n2CCCCCCn2c3ccccc3c3ccccc32)c2c(c1O)CN1CCc3cc4c(cc3C1C2)OCO4 (centres undefined)

>  <OUTPUT_UNIT>
µM

>  <MIC>
617.6

$$$$
>  <MOLECULE>
COc1cc(-c2nc3ccccc3n2Cc2ccc(Cl)cc2)c2c(c1O)CN1CCc3cc4c(cc3C1C2)OCO4 (centres undefined)

>  <OUTPUT_UNIT>
µM

>  <MIC>
56.5

$$$$

###

System: Escherichia coli
Assay: Antibacterial activity against Escherichia coli JM109 after 24 hrs by two-fold serial dilution assay
Type: functional
Conditions: Escherichia coli, JM109, 24 h; read-out: MIC

>  <COMPOUND>
COc1cc(-c2nc3ccccc3[nH]2)c2c(c1O)CN1CCc3cc4c(cc3C1C2)OCO4 (centres undefined)

>  <MIC (µM)>
60.4

$$$$
>  <COMPOUND>
COc1cc(-c2nc3ccccc3n2Cc2cccc(Cl)c2)c2c(c1O)CN1CCc3cc4c(cc3C1C2)OCO4 (centres undefined)

>  <MIC (µM)>
4.7

$$$$
>  <COMPOUND>
CCn1c(-c2cc(OC)c(O)c3c2CC2c4cc5c(cc4CCN2C3)OCO5)nc2ccccc21 (centres undefined)

>  <MIC (µM)>
28.4

$$$$
>  <COMPOUND>
COc1cc(-c2nc3ccccc3n2Cc2ccc(Cl)cc2Cl)c2c(c1O)CN1CCc3cc4c(cc3C1C2)OCO4 (centres undefined)

>  <MIC (µM)>
35.5

$$$$

###

Test system: Shigella dysenteriae
Assay: Antibacterial activity against Shigella dysenteriae after 24 hrs by two-fold serial dilution assay
Format: functional
# key: entry, value: MIC

>  <MOLECULE>
COc1cc(-c2nc3ccccc3n2Cc2ccccc2F)c2c(c1O)CN1CCc3cc4c(cc3C1C2)OCO4.Cl (centres undefined)

>  <MIC / µM>
50.2

$$$$
>  <MOLECULE>
COc1cc(-c2nc3ccccc3n2CCCCCCn2c3ccccc3c3ccccc32)c2c(c1O)CN1CCc3cc4c(cc3C1C2)OCO4.Cl (centres undefined)

>  <MIC / µM>
146.7

$$$$
>  <MOLECULE>
COc1cc(-c2nc3ccccc3n2Cc2ccc(Cl)cc2)c2c(c1O)CN1CCc3cc4c(cc3C1C2)OCO4 (centres undefined)

>  <MIC / µM>
18.9

$$$$
>  <MOLECULE>
COc1cc(-c2nc3ccccc3n2Cc2ccc(F)cc2)c2c(c1O)CN1CCc3cc4c(cc3C1C2)OCO4.Cl (centres undefined)

>  <MIC / µM>
145.6

$$$$

###

Tested on: Candida albicans
Experiment: Antifungal activity against Candida albicans ATCC 76615 after 24 hrs by two-fold serial dilution assay
Assay type: functional
Settings: Candida albicans, ATCC 76615, 24 h; read-out: MIC
MIC less than 40 µM is Satisfied; MIC greater than or equal to 40 µM is Not satisfied.

>  <COMPOUND>
COc1cc(-c2nc3cc(Cl)ccc3[nH]2)c2c(c1O)CN1CCc3cc4c(cc3C1C2)OCO4 (stereo not drawn)

>  <TARGET_DESC>
Candida albicans

>  <CLASS_NAME>
Not satisfied

$$$$
>  <COMPOUND>
COc1cc(-c2nc3ccccc3[nH]2)c2c(c1O)CN1CCc3cc4c(cc3C1C2)OCO4 (stereo not drawn)

>  <TARGET_DESC>
Candida albicans

>  <CLASS_NAME>
Not satisfied

$$$$
>  <COMPOUND>
CCCCCCCCn1c(-c2cc(OC)c(O)c3c2CC2c4cc5c(cc4CCN2C3)OCO5)nc2ccccc21 (stereo not drawn)

>  <TARGET_DESC>
Candida albicans

>  <CLASS_NAME>
Satisfied

$$$$
>  <COMPOUND>
COc1cc(-c2nc3ccccc3n2Cc2ccccc2Cl)c2c(c1O)CN1CCc3cc4c(cc3C1C2)OCO4 (stereo not drawn)

>  <TARGET_DESC>
Candida albicans

>  <CLASS_NAME>
Not satisfied

$$$$
>  <COMPOUND>
COc1ccc2c(c1O)CN1CCc3cc4c(cc3C1C2)OCO4 (stereo not drawn)

>  <TARGET_DESC>
Candida albicans

>  <CLASS_NAME>
Not satisfied

$$$$
>  <COMPOUND>
COc1cc(-c2nc3ccccc3n2Cc2ccc(Cl)c(Cl)c2)c2c(c1O)CN1CCc3cc4c(cc3C1C2)OCO4 (stereo not drawn)

>  <TARGET_DESC>
Candida albicans

>  <CLASS_NAME>
Not satisfied

$$$$
>  <COMPOUND>
CCCn1c(-c2cc(OC)c(O)c3c2CC2c4cc5c(cc4CCN2C3)OCO5)nc2ccccc21 (stereo not drawn)

>  <TARGET_DESC>
Candida albicans

>  <CLASS_NAME>
Satisfied

$$$$
>  <COMPOUND>
COc1cc(-c2nc3ccccc3n2Cc2ccccc2F)c2c(c1O)CN1CCc3cc4c(cc3C1C2)OCO4 (stereo not drawn)

>  <TARGET_DESC>
Candida albicans

>  <CLASS_NAME>
Satisfied

$$$$
>  <COMPOUND>
COc1cc(-c2nc3cc(F)ccc3[nH]2)c2c(c1O)CN1CCc3cc4c(cc3C1C2)OCO4 (stereo not drawn)

>  <TARGET_DESC>
Candida albicans

>  <CLASS_NAME>
Not satisfied

$$$$
>  <COMPOUND>
CCn1c(-c2cc(OC)c(O)c3c2CC2c4cc5c(cc4CCN2C3)OCO5)nc2ccccc21 (stereo not drawn)

>  <TARGET_DESC>
Candida albicans

>  <CLASS_NAME>
Satisfied

$$$$
>  <COMPOUND>
COc1cc(C=O)c2c(c1O)CN1CCc3cc4c(cc3C1C2)OCO4 (stereo not drawn)

>  <TARGET_DESC>
Candida albicans

>  <CLASS_NAME>
Not satisfied

$$$$
>  <COMPOUND>
COc1cc(-c2nc3ccccc3n2CCCCCCn2c3ccccc3c3ccccc32)c2c(c1O)CN1CCc3cc4c(cc3C1C2)OCO4 (stereo not drawn)

>  <TARGET_DESC>
Candida albicans

>  <CLASS_NAME>
Not satisfied

$$$$
>  <COMPOUND>
COc1cc(-c2nc3ccccc3n2Cc2cccc(Cl)c2)c2c(c1O)CN1CCc3cc4c(cc3C1C2)OCO4 (stereo not drawn)

>  <TARGET_DESC>
Candida albicans

>  <CLASS_NAME>
Satisfied

$$$$
>  <COMPOUND>
COc1ccc2cc3[n+](cc2c1OC)CCc1cc2c(cc1-3)OCO2

>  <TARGET_DESC>
Candida albicans

>  <CLASS_NAME>
Not satisfied

$$$$
>  <COMPOUND>
COc1ccc(Cn2c(-c3cc(OC)c(O)c4c3CC3c5cc6c(cc5CCN3C4)OCO6)nc3ccccc32)cc1 (stereo not drawn)

>  <TARGET_DESC>
Candida albicans

>  <CLASS_NAME>
Satisfied

$$$$
>  <COMPOUND>
CCCCCCCCCCCCn1c(-c2cc(OC)c(O)c3c2CC2c4cc5c(cc4CCN2C3)OCO5)nc2ccccc21 (stereo not drawn)

>  <TARGET_DESC>
Candida albicans

>  <CLASS_NAME>
Satisfied

$$$$
>  <COMPOUND>
COc1cc(-c2nc3ccccc3n2Cc2cccc(F)c2)c2c(c1O)CN1CCc3cc4c(cc3C1C2)OCO4 (stereo not drawn)

>  <TARGET_DESC>
Candida albicans

>  <CLASS_NAME>
Not satisfied

$$$$
>  <COMPOUND>
COc1cc(-c2nc3ccccc3n2Cc2ccc(Cl)cc2Cl)c2c(c1O)CN1CCc3cc4c(cc3C1C2)OCO4 (stereo not drawn)

>  <TARGET_DESC>
Candida albicans

>  <CLASS_NAME>
Satisfied

$$$$
